- TEST_DETAILS: Extrapyramidal activity: catalepsy inducing activity test
- Set-up: species or system mice (dd strain male)
- EXPERIMENTAL_PARAMETERS: mouse, in vivo; oral administration; checked 1 and 4 hours after administration; mice; read-out: ED50, catalepsy induction
- Description: (2) Extrapyramidal activity This activity was examined through the catalepsy inducing activity test as described in M. Fujiwara et al.: Folia Formacol., Japon: 85, 259-274 (1985). A designated amount of the test compound was orally administered to dd strain male mice (bodyweight, 22 to 27 g), and 1 and 4 hours after the administration, catalepsy induction was checked according to the Wirth et al method. […]
MEASUREMENT_LABEL: TD50

I'd like to know its TD50. The compound in question is O=C(CCCN1CCC(O)(c2ccc(Cl)cc2)CC1)c1ccc(F)cc1
< 5 mg/kg
